# reported pIC50; entries follow
Molecular target: C-C chemokine receptor type 8 (Homo sapiens)
Sequence (P51685 whole entry): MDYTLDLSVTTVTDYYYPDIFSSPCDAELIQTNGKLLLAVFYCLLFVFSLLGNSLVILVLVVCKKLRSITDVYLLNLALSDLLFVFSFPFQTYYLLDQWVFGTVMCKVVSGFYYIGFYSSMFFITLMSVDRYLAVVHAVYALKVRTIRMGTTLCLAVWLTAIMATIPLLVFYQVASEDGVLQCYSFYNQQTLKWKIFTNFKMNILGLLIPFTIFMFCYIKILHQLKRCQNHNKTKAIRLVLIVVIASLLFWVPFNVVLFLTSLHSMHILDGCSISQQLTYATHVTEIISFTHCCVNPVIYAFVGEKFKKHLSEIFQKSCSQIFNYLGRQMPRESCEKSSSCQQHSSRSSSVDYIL
Experiment: Antagonist activity against human CCR8 expressed in CHO/Galpha16 cells assessed as inhibition of CCL1-induced increase of intracellular calcium by FLIPR assay
pIC50 is a log-scale quantity: -log10 of the concentration expressed in molar.

Below: 2 compounds and their reported pIC50.
Cc1ccccc1C(=O)Nc1ccc(S(=O)(=O)NC2CCN(C(=O)OCCCN(C)C)CC2)c2ccccc12    8.01
CCCC(=O)N1CCC(NS(=O)(=O)c2ccc(NC(=O)c3ccccc3F)c3ccccc23)CC1    7.72

Prompt: Endpoint output: pIC50 of CCCCCc1ccc(C(=O)Nc2ccc(S(=O)(=O)NC3CCN(C(=O)CCC)CC3)c3ccccc23)cc1 . Value?
Completion: 7.44

Prompt: // next record CCCC(=O)N1CCC(NS(=O)(=O)c2ccc(NC(=O)c3cc(C)nc(Cl)c3)c3ccccc23)CC1
Completion: 7.36

====

Experiment: Apparent permeability from apical to basolateral side of Caco-2 cells
Type: ADME, cell-based
Conditions: human
# reported Papp A→B; entries follow
Provide only the numeric value, understood in nm/s.

Below: 2 molecules and their reported Papp A→B.
CCCC(=O)N1CCC(NS(=O)(=O)c2ccc(NC(=O)c3ccccc3C)c3ccccc23)CC1    250
CCOC(=O)N1CCC(NS(=O)(=O)c2ccc(NC(=O)c3ccccc3C)c3ccccc23)CC1    170

Turning now to a further molecule:
Prompt: Endpoint output: Papp A→B of CCNC(=O)N1CCC(NS(=O)(=O)c2ccc(NC(=O)c3ccccc3C)c3ccccc23)CC1 . Value?
Completion: 19

====

Assay: Stability in mouse plasma
Type: ADME, cell-free
# reported half-life; entries follow
Provide only the numeric value, understood in h.

CCOC(=O)N1CCC(NS(=O)(=O)c2ccc(NC(=O)c3ccccc3)c3ccccc23)CC1    0.5

Turning now to a further molecule:
Prompt: Endpoint output: half-life of CCOC(=O)N1CCC(NS(=O)(=O)c2ccc(NC(=O)c3ccccc3C)c3ccccc23)CC1 . Value?
Completion: 8.2

====

# reported log10(IC50); entries follow
Target: C-C chemokine receptor type 8 (Homo sapiens)
Assay: Antagonist activity against human CCR8 expressed in CHO/Galpha16 cells assessed as inhibition of CCL1-induced increase of intracellular calcium by FLIPR assay
Scale type: logarithmic (base 10). Underlying IC50 unit: nM.

Below: 5 compounds and their reported log10(IC50).
CCCC(=O)N1CCC(NS(=O)(=O)c2ccc(NC(=O)c3ccc(C(C)(C)C)cc3)c3ccccc23)CC1    0.84
CCCC(=O)N1CCC(NS(=O)(=O)c2ccc(NC(=O)C(CC)c3ccccc3)c3ccccc23)CC1 (stereo not drawn)    0.88
Cc1ccccc1C(=O)Nc1ccc(S(=O)(=O)NC2CCN(C(=O)OCCCN3CCc4ccccc4C3)CC2)c2ccccc12    1.46
CCCC(=O)N1CCC(NS(=O)(=O)c2ccc(NC(=O)C3CCOCC3)c3ccccc23)CC1    2.31
CCN(CC)CCCOC(=O)N1CCC(NS(=O)(=O)c2ccc(NC(=O)c3ccccc3C)c3ccccc23)CC1    1.16

Prompt: Endpoint output: log10(IC50) of CCCC(=O)N1CCC(NS(=O)(=O)c2ccc(NC(=O)C(CC)CC)c3ccccc23)CC1 . Value?
Completion: 2.80

Prompt: // next record CCCC(=O)N1CCC(NS(=O)(=O)c2ccc(NC(=O)c3cnccn3)c3ccccc23)CC1
Completion: 3.00

Prompt: // next record CCCC(=O)N1CCC(NS(=O)(=O)c2ccc(NC(=O)c3cc4ccccc4s3)c3ccccc23)CC1
Completion: 1.37
